Taken from PubChem BioAssay (NCI).

Listed next: entries and their corresponding GI50.
tested on: NCI-H226 lung; assay: NCI tumour cell line growth inhibition, 48 h

CCCCCCCCCCCCCCCCOP(=O)([O-])OCC[N+](C)(C)C | 1.59 µM
Cc1c(N)nc(C(CC(N)=O)NCC(N)C(N)=O)nc1C(=O)NC(C(=O)NC(C)C(O)C(C)C(=O)NC(C(=O)NCCc1nc(-c2nc(C(=O)NCCCNC(C)c3ccccc3)cs2)cs1)C(C)O)C(OC1OC(CO)C(O)C(O)C1OC1OC(CO)C(O)C(OC(N)=O)C1O)c1cnc[nH]1 (stereo not drawn) | 1.59 µM

Give the measured GI50 of `O=C(Nc1ccc(F)cc1)Nc1ccc(Br)c(C(F)(F)F)c1` .
2.73 µM

----------
system: ACHN renal; assay: NCI tumour cell line growth inhibition, 48 h; in the data active = GI50 below about 0.43 µM; inactive = the rest
Hi there, use one of these labels in your reply, thanks! active, inactive

Answered examples (6):
C=C1SC(=Nc2ccccc2Cl)N(C(=O)c2sc3ccccc3c2Cl)C12CCCCC2 | inactive
O=C1C(=O)c2ccccc2C(O)=C1CCCc1ccc(C2CCCCC2)cc1 | inactive
C=C1C(=O)O[C@H]2[C@H]1CC/C(Cn1cc(-c3ccc(F)cc3)nn1)=C\CC[C@@]1(C)O[C@@H]21 | active
O=CN1N=C(c2cccc(Nc3ccnc4cc(Cl)ccc34)c2)CC1c1ccccc1 (configuration not stated) | inactive
COC1=CC(c2ccc[nH]2)=N/C1=C\c1[nH]c(C)c(CC(=O)OCc2ccccc2)c1C | active
Clc1ccc2nc(CI)c(CI)nc2c1 | inactive

Please share the test call associated with CCC1(OC(=O)CN)C(=O)OCc2c1cc1n(c2=O)Cc2cc3ccccc3nc2-1 (configuration not stated) .
active

----------
test system: SNB-19 CNS; assay: NCI tumour cell line growth inhibition, 48 h
Listed next: entries and their corresponding GI50.

Solved cases (6 shown):
O=C(c1ccccc1)c1c(C(F)(F)F)n([O-])c2cc(C(F)(F)F)ccc2[n+]1=O | 1.89 µM
Cc1nc2ccccn2c1NC(=O)NNC(=S)Nc1ccc(F)cc1 | > 100 µM
C=C1C(=O)O[C@H]2[C@H]1CC/C(Cn1cc(-c3ccc(F)cc3)nn1)=C\CC[C@@]1(C)O[C@@H]21 | 3.39 µM
C=C1SC(=Nc2ccccc2Cl)N(C(=O)c2sc3ccccc3c2Cl)C12CCCCC2 | 7.56 µM
CC(C)=CC(=O)N[C@H]1CC[C@]2(C)C3CC[C@]4(C)C(C(C)N(C)C)=CCC4C3CCC2[C@H]1O (some centres not stated) | 14.8 µM
O=C(CI)Nc1ccc(O)c2ccccc12 | 3.39 µM

Attention now turns to another entry.
Give the measured GI50 of `CCCCCCCCCCCCCCCCOP(=O)([O-])OCC[N+](C)(C)C` .
1.21 µM

----------
system: OVCAR-8 ovarian; experiment: NCI tumour cell line growth inhibition, 48 h; in the data active means GI50 below about 0.43 µM; inactive means the rest
Hi there, use one of these labels in your reply, thanks! active, inactive

Answered examples (6):
O=C(c1ccccc1)c1c(C(F)(F)F)n([O-])c2cc(C(F)(F)F)ccc2[n+]1=O | inactive
C[C@H]1COCCN1c1cc(C2(S(=O)(=O)C3CC3)CC2)nc(-c2ccc(NC(=S)NCCO)cc2)n1 | active
Cc1ccc2c(c1)C(=O)c1c-2c(OCCCN(C)C)nc2ccccc12 | inactive
CCCCCCCC(=O)SCC/C=C/[C@@H]1CC(=O)NCc2nc(cs2)C2=N[C@@](C)(CS2)C(=O)N[C@@H](C(C)C)C(=O)N1 | active
CO[C@H]1C[C@](C)(O)Cc2cc3c(c(O)c21)C(=O)c1c(O)cc2c(c1C3=O)O[C@@H]1O[C@@]2(C)[C@H](O)[C@@H](N(C)C)[C@@H]1O | inactive
C=C1C(=O)O[C@H]2[C@H]1CC/C(COC(=O)CCCc1c[nH]c3ccccc13)=C\CC[C@@]1(C)O[C@@H]21 | inactive

Please share the test call associated with `Cc1nc2ccccn2c1NC(=O)NNC(=S)Nc1ccc(F)cc1` .
inactive

Please share the test call associated with `CCCCCCCCCCCCCC[n+]1ccc(C(N)=O)cc1` .
inactive

Please share the test call associated with `C=C1C(=O)O[C@H]2[C@H]1CC/C(COC(=O)OC/C1=C/CC[C@@]3(C)O[C@H]3[C@H]3OC(=O)[C@@H](CN(C)C)[C@@H]3CC1)=C\CC[C@@]1(C)O[C@@H]21` .
inactive

----------
test system: SK-MEL-2 melanoma; assay: NCI tumour cell line growth inhibition, 48 h
Listed next: entries and their corresponding TGI.

Solved cases (10 shown):
CC(=O)O[C@H]1C(=O)[C@@]2(C)[C@H]([C@H](OC(=O)c3ccccc3)[C@]3(O)C[C@H](OC(=O)[C@H](O)[C@@H](NC(=O)c4ccccc4)c4cccc(N(C)C)c4)C(C)=C1C3(C)C)[C@]1(OC(C)=O)CO[C@@H]1C[C@@H]2O | > 75 µM
CCOC(=O)CCN1C(=O)C(=O)N(c2ccc(OC)cc2)C1=S | > 100 µM
Cc1cc2n[n+]3[n-]cc(-c4ccccc4)n3c2cc1[N+](=O)[O-] | > 100 µM
Nc1nc2cc(CC[C@H]3C[C@@H](n4ccc5c(N)ncnc54)[C@H](O)[C@@H]3O)ccc2cc1Br | 25.1 µM
N/N=C(\c1nc2ccc(Cl)cc2[nH]c1=O)C(O)c1ccc(Cl)c(Cl)c1 (configuration not stated) | > 100 µM
CC(C)(C)N/N=C(\C(=O)Nc1nc(=S)[nH][nH]1)C1C(=O)Nc2ccccc2S1=O (configuration not stated) | > 100 µM
CN(C)CCCC1(c2ccc(F)cc2)OCc2cc(-c3cc4ccccc4s3)ccc21 (configuration not stated) | 3.46 µM
C=CCN1/C(=C2\SC(=S)N(c3ccc(C)cc3)C2=O)Sc2c1ncn(C)c2=O | > 100 µM
C=CCC1(C(=O)OC(C)(C)C)C(OC)=C(C(=O)OC(C)(C)C)C2C1C(C(=O)OC(C)(C)C)=C(OC)C2(CC=C)C(=O)OC(C)(C)C (configuration not stated) | > 100 µM
COC(=O)C(=O)C(C(=O)C(=O)Nc1ccccc1OC)c1nc2ccc([N+](=O)[O-])cc2[nH]c1=O (configuration not stated) | > 100 µM

Can you look up TGI on SK-MEL-2 melanoma for CCn1c2c(c3ccccc31)[C@@H](c1ccc(Cl)cc1)CC1C(=O)N(c3ccccc3)C(=O)C21 (some centres not stated) ?
> 100 µM

Can you look up TGI on SK-MEL-2 melanoma for COC(=O)C(CC(=O)Nc1ccc(Cl)c(Cl)c1)C(=O)C(=O)Nc1ccc(Cl)c(Cl)c1 (configuration not stated) ?
> 100 µM

Can you look up TGI on SK-MEL-2 melanoma for CCOC(=O)[C@@]1(C)CC(O)C(=O)N1C (some centres not stated) ?
> 100 µM

Can you look up TGI on SK-MEL-2 melanoma for `CC(=O)O[C@H]1C[C@@H](OC(C)=O)[C@@](C)(O)[C@@H]2[C@@H](OC(C)=O)[C@@]3(O)[C@H](/C=C(/CO)[C@H]4O[C@H]4[C@@H](OC(C)=O)[C@@]12C)OC(=O)[C@@H]3C` ?
> 25 µM

Can you look up TGI on SK-MEL-2 melanoma for `CC(=O)O[C@H]1C(=O)[C@@]2(C)[C@H]([C@H](OC(=O)c3ccccc3)[C@]3(O)C[C@H](OC(=O)[C@H](OC(=O)OC[C@H]4COC(C)(C)O4)[C@@H](NC(=O)c4ccccc4)c4ccccc4)C(C)=C1C3(C)C)[C@]1(OC(C)=O)CO[C@@H]1C[C@@H]2O` ?
> 33.3 µM

Can you look up TGI on SK-MEL-2 melanoma for `COc1ccc(/C=C2\SC(=Nc3ccccc3)NC2=O)cc1` ?
82.4 µM

Can you look up TGI on SK-MEL-2 melanoma for `S=c1nc(N/N=C/c2cccs2)c2cn[nH]c2[nH]1` ?
> 100 µM

----------
Listed next: entries and their corresponding TGI.
test system: M19-MEL melanoma; test: NCI tumour cell line growth inhibition, 48 h

Cc1cccc(C)c1N1C(=O)C(=O)C(c2nc3ccccc3s2)/C(=N/NC(=O)c2ccccc2O)C1=O (configuration not stated) | > 100 µM

Attention now turns to another entry.
Give the measured TGI of CC(C(=O)c1ccccc1)C1(O)C(=O)Nc2ccc(Cl)cc21 (configuration not stated) .
31.6 µM

----------
Listed next: entries and their corresponding TGI.
system: ACHN renal; assay: NCI tumour cell line growth inhibition, 48 h

COc1ccc2c(c1)NC1(O)c3ccccc3C(=O)C21O (stereo not given) | > 100 µM

Can you look up TGI on ACHN renal for `N#C/C(=N\Nc1ccccc1)C(=O)Nc1cc(-c2ccccc2)nn1-c1ccccc1` ?
> 100 µM

----------
Listed next: entries and their corresponding GI50.
test system: U251 CNS

Solved cases (5 shown):
ClCc1ccccc1Cn1cnc2c(Cl)ncnc21 | 2650 nM
C[C@H]1COCCN1c1cc(C2(S(=O)(=O)C3CC3)CC2)nc(-c2ccc(NC(=S)NCCO)cc2)n1 | 52.4 nM
C=C1C(=O)O[C@H]2[C@H]1CC/C(COC(=O)OC/C1=C/CC[C@@]3(C)O[C@H]3[C@H]3OC(=O)[C@@H](CN(C)C)[C@@H]3CC1)=C\CC[C@@]1(C)O[C@@H]21 | 3300 nM
CO[C@H]1C[C@](C)(O)Cc2cc3c(c(O)c21)C(=O)c1c(O)cc2c(c1C3=O)O[C@@H]1O[C@@]2(C)[C@H](O)[C@@H](N(C)C)[C@@H]1O | 461 nM
Cc1nc2ccccn2c1NC(=O)NNC(=S)Nc1ccc(F)cc1 | > 100000 nM

Give the measured GI50 of `Cc1cc(OCCOCCC(F)(F)P(=O)(O)O)ccc1CCc1cnc2c(N)nc3cc(CCC(=O)O)ccc3c2c1` .
> 100000 nM

Give the measured GI50 of `Cn1c(-c2ccccc2)c(/C=C/C2=[N+](C)c3ccccc3C2(C)C)c2ccccc21` .
460 nM

Give the measured GI50 of CN(C)CCCC1(c2ccc(F)cc2)OCc2cc(-c3cc4ccccc4s3)ccc21 (centres undefined) .
1630 nM

Give the measured GI50 of `COc1ccc(NC(=O)c2sc3nc(C)c(C(=O)/C=C/c4cccc(OC)c4)cc3c2N)cc1` .
1010 nM
